Molecular target: T1, extracellular domain of human KLB expressed with C-terminal HA and hexahistidine tags (human, UniProt Q86Z14 1-996)
T1 construct: also called hKLB-HA-6His; hKLB-HA-6his
T1 sequence: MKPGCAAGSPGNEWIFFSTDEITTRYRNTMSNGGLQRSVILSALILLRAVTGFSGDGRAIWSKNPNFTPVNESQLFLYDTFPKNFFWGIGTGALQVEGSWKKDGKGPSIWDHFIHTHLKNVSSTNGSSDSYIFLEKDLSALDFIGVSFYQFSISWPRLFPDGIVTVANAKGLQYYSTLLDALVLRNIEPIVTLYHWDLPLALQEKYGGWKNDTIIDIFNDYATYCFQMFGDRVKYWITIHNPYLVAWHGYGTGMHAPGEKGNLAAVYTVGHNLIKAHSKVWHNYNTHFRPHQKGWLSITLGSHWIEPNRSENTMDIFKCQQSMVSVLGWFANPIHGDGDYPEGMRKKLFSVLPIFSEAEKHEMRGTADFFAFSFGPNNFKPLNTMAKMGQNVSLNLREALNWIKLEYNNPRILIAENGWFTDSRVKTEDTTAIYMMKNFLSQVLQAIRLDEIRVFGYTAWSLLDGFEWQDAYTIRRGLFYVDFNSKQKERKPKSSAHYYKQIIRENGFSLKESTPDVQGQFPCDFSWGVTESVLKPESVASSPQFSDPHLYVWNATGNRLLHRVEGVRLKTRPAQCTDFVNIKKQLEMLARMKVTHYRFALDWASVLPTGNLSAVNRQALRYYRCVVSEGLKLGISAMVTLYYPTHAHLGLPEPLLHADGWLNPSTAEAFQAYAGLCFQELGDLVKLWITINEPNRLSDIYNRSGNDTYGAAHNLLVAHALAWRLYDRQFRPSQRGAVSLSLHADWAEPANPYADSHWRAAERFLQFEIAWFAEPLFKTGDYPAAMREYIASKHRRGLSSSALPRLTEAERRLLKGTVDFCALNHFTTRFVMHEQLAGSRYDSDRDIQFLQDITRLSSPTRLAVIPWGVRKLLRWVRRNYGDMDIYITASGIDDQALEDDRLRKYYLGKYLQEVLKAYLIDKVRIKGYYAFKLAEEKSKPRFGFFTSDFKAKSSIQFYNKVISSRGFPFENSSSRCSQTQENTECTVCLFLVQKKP
Assay: SPR, mAb captured, 25 C
MEASURED METRIC: 20 nM hKLB-HA-6His Bind (RU)
Answer format: numeric, RU implied, no suffix.

1) H4H8878P (antibody, V domains shown, human IgG4 Fc (H4H prefix)) VH: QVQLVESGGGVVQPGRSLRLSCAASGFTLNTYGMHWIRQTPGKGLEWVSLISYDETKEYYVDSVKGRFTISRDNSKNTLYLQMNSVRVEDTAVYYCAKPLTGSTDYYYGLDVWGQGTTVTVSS VL: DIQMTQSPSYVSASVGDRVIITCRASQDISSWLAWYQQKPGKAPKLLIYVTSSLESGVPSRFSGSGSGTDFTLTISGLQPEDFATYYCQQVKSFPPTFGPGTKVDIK    28.4

Q: Reported 20 nM hKLB-HA-6His Bind (RU), binder H4H8871P (antibody, V domains shown, human IgG4 Fc (H4H prefix)) VH: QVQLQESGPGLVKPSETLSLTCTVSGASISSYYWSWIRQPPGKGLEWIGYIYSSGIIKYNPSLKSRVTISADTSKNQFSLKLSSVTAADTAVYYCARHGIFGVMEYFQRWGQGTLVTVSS VL: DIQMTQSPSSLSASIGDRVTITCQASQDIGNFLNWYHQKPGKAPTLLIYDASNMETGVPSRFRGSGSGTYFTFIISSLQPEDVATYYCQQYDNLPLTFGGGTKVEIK : ____
A: -0.7

Q: Sample H4H8852P (antibody, V domains shown, human IgG4 Fc (H4H prefix)) VH: QVQLQESGPGLVKPSETLSLTCTVSGGSISSYYWSWIRQPPGKGLEWIGYIYSSGIIKYNPSLKSRVTISADTSKNQFSLKLSSVTAADTAVYYCARHGIFGVMEYFQRWGQGTLVTVSS VL: DIQMTQSPSSLSASIGDRVTITCQASQDIGNFLNWYQQKPGKAPTLLIYDASNMETGVPSRFSGSGSGTYFTFTISSLQPEDVATYYCQQYDNLPLTFGGGTKVEIK — what was its 20 nM hKLB-HA-6His Bind (RU)?
A: -0.2

Q: Item under review: H4H8856P (antibody, V domains shown, human IgG4 Fc (H4H prefix)) VH: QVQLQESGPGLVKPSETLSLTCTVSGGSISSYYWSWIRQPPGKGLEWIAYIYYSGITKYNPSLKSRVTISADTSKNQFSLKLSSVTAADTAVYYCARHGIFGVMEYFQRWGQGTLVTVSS VL: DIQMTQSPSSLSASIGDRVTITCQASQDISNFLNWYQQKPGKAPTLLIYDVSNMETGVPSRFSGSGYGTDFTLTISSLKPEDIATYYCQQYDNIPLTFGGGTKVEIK . Reported 20 nM hKLB-HA-6His Bind (RU)?
A: -0.4

Q: # lookup: 20 nM hKLB-HA-6His Bind (RU) of H2aM8093N (antibody, V domains shown, mouse IgG2 Fc (H2aM prefix)) VH: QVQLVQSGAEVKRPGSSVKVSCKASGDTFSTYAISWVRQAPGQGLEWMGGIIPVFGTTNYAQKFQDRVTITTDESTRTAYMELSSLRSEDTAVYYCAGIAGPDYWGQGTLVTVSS VL: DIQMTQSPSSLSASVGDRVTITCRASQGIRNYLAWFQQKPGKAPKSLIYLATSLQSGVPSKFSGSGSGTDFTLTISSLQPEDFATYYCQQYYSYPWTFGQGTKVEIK
A: 147

Q: Give its 20 nM hKLB-HA-6His Bind (RU) value. Item: H1H8900P (antibody, V domains shown, H1H Fc prefix (human Fc)) VH: QVQLVESGGGVVQPGRSLRLSCVASGFTFSSYGMHWVRQAPGKGLEWVAVISFDGSNKYYADSVKGRFTISRDNSKNTLYLQMNSLRPADTAVYYCAKDRSNYYYFGMDVWGQGTTVTVSS VL: DIVMTQTPLSLPVTPGEPASISCRSSQSLLDSDDGNTYLDWYLQKPGQSPQLLIYTLSYRASGVPDRFSGSGSGTDFTLKISRVEAEDVGVYYCMQRIEFPLTFGGGTKVEIK
A: 0.3

Q: Which 20 nM hKLB-HA-6His Bind (RU) value is on record for H2aM8092N (antibody, V domains shown, mouse IgG2 Fc (H2aM prefix); also called H2M8092N) VH: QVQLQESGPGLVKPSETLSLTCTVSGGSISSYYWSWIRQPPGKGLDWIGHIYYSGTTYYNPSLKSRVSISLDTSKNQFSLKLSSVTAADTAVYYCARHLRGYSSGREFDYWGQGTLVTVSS VL: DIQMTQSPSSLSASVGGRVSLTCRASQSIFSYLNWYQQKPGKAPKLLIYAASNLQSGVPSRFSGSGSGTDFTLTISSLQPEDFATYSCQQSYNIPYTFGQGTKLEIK ?
A: 64.1

Q: Consider the binder shown here: H4H8881P (antibody, V domains shown, human IgG4 Fc (H4H prefix)) VH: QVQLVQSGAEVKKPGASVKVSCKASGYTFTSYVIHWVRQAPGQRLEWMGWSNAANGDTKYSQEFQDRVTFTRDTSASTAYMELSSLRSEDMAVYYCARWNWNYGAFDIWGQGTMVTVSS VL: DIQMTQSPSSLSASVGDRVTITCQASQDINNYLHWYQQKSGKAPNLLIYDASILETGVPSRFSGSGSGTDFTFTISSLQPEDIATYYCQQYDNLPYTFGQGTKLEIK What is its recorded 20 nM hKLB-HA-6His Bind (RU)?
A: 92.7

Q: I have this binder here, H2aM8109N (antibody, V domains shown, mouse IgG2 Fc (H2aM prefix)) VH: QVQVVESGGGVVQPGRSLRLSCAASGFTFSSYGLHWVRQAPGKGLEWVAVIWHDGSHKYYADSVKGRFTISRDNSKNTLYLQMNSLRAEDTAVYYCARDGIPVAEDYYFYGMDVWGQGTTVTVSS VL: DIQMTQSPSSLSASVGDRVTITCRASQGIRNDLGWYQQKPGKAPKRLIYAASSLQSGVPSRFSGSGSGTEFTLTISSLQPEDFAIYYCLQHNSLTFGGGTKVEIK , and I need its recorded 20 nM hKLB-HA-6His Bind (RU).
A: 21.3

Q: Quick one: 20 nM hKLB-HA-6His Bind (RU) for H2aM8091N (antibody, V domains shown, mouse IgG2 Fc (H2aM prefix); also called H2M8091N) VH: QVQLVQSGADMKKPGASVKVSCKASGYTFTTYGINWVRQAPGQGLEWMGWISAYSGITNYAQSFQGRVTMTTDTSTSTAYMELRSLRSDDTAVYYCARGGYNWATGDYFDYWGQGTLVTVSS VL: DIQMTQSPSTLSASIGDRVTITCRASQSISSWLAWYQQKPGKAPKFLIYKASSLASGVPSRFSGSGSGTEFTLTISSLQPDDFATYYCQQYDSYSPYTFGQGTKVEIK ?
A: -2
